Data credit: patent US11078232B2

Answer each item with its documented MTD at 17 days.
# procedure.details: MTD (maximum tolerated dose) acute toxicity in mice
# Format: in vivo, mouse
# experimental.setup: female, mouse, in vivo; BALB/C mice, intravenous, observed 17 days
Respond numerically; units are mg/kg and should not be typed.

Task: Returns the measured MTD at 17 days for the input compound. Input: CC(NC(=O)C(NC(=O)[C@H](O)[C@H](O)[C@@H](O[C@@H]1O[C@H](CO)[C@H](O)[C@H](O)[C@H]1O)[C@H](O)CO)C(C)C)C(=O)NC(CC(N)=O)C(=O)Nc1ccc(COC(=O)N2CC(C)(C)c3ccc(NC(=O)c4cccnc4NCc4ccncc4)cc32)cc1 (some centres unmarked)
Result: 290

Task: What would you report for CC(NC(=O)C(NC(=O)[C@H](O)[C@H](O)[C@@H](O[C@@H]1O[C@H](CO)[C@H](O)[C@H](O)[C@H]1O)[C@H](O)CO)C(C)O)C(=O)NC(CC(N)=O)C(=O)Nc1ccc(COC(=O)N(C)CCNC(=O)c2cc(Oc3ccc(NC(=O)Nc4ccc(Cl)c(C(F)(F)F)c4)cc3)ccn2)cc1 (some centres unmarked) ?
Result: 320
